- measured on: Histone deacetylase 2 (Homo sapiens)
- Sequence (Q92769 whole entry): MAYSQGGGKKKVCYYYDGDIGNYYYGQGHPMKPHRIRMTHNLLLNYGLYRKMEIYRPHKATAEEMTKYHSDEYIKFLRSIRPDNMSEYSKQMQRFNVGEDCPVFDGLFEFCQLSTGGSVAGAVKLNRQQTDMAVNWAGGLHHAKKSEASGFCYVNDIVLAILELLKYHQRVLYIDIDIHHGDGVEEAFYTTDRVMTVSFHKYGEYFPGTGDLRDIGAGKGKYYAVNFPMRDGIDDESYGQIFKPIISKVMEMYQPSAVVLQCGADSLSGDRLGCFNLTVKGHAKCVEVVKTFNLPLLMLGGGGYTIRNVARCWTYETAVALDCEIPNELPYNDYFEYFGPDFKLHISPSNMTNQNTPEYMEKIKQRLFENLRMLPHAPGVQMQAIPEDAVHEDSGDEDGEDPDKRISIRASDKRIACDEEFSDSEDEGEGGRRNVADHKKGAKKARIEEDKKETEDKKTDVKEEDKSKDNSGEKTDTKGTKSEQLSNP
Below, each entry is listed alongside its reported IC50.

{"structure smiles": "COc1ccc(C(=O)N[C@@H](Cc2c[nH]c3ccccc23)C(=O)NCCCCCC(=O)Nc2cc(-c3ccccc3)ccc2N)cc1", "IC50": "490 nM"}
{"structure smiles": "COc1ccc(C(=O)N[C@H](COc2ccc(/C=C/C(=O)Nc3ccccc3N)cc2)Cc2c[nH]c3ccccc23)cc1", "IC50": "217 nM"}
{"structure smiles": "COc1ccc(C(=O)N[C@@H](Cc2c[nH]c3ccccc23)C(=O)NCCCCCC(=O)Nc2cc(-c3cccs3)ccc2N)cc1", "IC50": "337 nM"}

Looking up COc1ccc(C(=O)N[C@@H](Cc2c[nH]c3ccccc23)C(=O)NCc2ccc(C(=O)Nc3ccccc3N)cc2)cc1 , I see its IC50 listed as 157 nM

###

Reported values: log10(IC50) for UniProt Q92769, one per item.
Use the decimal logarithm of IC50 (nM).

Solved entries (count: 5):
{"structure smiles": "COc1ccc(C(=O)N[C@@H](Cc2c[nH]c3ccccc23)C(=O)Nc2ccc(C(=O)Nc3ccc(F)cc3N)cc2)cc1", "recorded result": 2.08}
{"structure smiles": "COc1ccc(C(=O)N[C@@H](Cc2c[nH]c3ccccc23)C(=O)NCCCCCC(=O)Nc2ccccc2N)cc1", "recorded result": 2.47}
{"structure smiles": "COc1ccc(C(=O)N[C@H](COc2ccc(C(=O)Nc3ccccc3N)cc2)Cc2c[nH]c3ccccc23)cc1", "recorded result": 2.05}
{"structure smiles": "COc1ccc(C(=O)N[C@@H](Cc2c[nH]c3ccccc23)C(=O)Nc2ccc(C(=O)Nc3ccccc3N)cc2)cc1", "recorded result": 2.64}
{"structure smiles": "COc1ccc(C(=O)N[C@@H](Cc2c[nH]c3ccccc23)C(=O)NCCCCCC(=O)Nc2ccc(F)cc2N)cc1", "recorded result": 2.96}

Entry COc1ccc(C(=O)N[C@H](CNCc2ccc(C(=O)Nc3ccccc3N)cc2)Cc2c[nH]c3ccccc23)cc1 : log10(IC50) on UniProt Q92769 = 1.33

Entry COc1ccc(C(=O)N[C@@H](Cc2c[nH]c3ccccc23)C(=O)NCc2ccc(C(=O)Nc3cc(-c4cccs4)ccc3N)cc2)cc1 : log10(IC50) on UniProt Q92769 = 2.51

###

Below, each entry is listed alongside its reported pIC50.
- measured on: Protein deacetylase HDAC6 (Homo sapiens, UniProt Q9UBN7)
- Sequence (Q9UBN7 whole entry): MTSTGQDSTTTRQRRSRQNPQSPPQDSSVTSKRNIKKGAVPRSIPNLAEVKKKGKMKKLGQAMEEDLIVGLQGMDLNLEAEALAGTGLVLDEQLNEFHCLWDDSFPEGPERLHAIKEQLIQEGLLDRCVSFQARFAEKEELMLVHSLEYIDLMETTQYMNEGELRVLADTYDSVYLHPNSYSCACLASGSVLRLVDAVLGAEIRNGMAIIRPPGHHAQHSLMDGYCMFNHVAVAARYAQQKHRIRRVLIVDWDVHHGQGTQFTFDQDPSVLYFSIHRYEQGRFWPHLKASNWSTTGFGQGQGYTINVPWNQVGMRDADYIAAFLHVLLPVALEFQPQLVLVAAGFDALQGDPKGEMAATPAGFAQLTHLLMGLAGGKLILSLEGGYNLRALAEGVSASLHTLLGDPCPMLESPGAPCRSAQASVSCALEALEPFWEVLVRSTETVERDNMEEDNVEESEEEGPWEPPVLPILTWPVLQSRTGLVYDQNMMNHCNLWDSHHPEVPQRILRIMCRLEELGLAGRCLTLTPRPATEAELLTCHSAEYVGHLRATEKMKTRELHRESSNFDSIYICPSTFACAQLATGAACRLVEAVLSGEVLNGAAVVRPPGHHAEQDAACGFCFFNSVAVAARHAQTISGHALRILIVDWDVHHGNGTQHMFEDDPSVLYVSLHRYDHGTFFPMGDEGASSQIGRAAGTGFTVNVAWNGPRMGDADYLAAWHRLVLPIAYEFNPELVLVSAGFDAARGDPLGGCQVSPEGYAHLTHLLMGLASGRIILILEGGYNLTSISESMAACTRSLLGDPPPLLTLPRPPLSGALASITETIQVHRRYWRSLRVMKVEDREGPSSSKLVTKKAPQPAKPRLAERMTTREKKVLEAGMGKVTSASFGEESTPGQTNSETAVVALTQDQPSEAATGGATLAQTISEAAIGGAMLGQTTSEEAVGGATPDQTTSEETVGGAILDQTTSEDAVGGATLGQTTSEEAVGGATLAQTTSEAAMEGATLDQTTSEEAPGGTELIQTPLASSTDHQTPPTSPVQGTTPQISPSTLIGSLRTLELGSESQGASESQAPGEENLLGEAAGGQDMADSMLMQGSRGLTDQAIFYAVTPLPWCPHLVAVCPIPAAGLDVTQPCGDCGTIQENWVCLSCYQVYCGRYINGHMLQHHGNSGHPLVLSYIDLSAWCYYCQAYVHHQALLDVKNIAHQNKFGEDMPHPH
pIC50: −log10 of the molar value.

{"structure smiles": "COc1ccc(C(=O)N[C@@H](Cc2c[nH]c3ccccc23)C(=O)NCCCCCC(=O)Nc2cc(-c3cccs3)ccc2N)cc1", "pIC50": "< 4.00"}

Entry COc1ccc(C(=O)N[C@@H](Cc2c[nH]c3ccccc23)C(=O)NCCCCCC(=O)Nc2ccc(F)cc2N)cc1 : pIC50 on Protein deacetylase HDAC6 (Homo sapiens, UniProt Q9UBN7) = < 4.00

###

- measured on: Histone deacetylase 1 (Homo sapiens, UniProt Q13547)
- Sequence (Q13547 whole entry): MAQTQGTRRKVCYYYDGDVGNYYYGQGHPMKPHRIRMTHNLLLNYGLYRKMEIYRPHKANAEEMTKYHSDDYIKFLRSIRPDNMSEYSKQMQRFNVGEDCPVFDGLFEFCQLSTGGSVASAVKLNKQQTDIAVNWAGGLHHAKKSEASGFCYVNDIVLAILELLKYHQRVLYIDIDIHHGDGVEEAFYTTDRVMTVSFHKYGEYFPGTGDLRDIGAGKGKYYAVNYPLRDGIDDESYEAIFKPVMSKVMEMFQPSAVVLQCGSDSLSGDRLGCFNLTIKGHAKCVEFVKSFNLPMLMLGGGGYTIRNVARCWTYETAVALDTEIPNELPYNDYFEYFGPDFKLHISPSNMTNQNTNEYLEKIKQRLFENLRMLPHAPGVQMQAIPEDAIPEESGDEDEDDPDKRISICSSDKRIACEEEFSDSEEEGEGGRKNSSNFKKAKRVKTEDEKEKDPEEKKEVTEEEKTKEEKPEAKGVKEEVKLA
Below, each entry is listed alongside its reported IC50.
Quick note: give the figure in nM, leave out the unit.

Solved entries (count: 5):
{"structure smiles": "COc1ccc(C(=O)N[C@@H](Cc2c[nH]c3ccccc23)C(=O)NCCCCCC(=O)Nc2cc(-c3cccs3)ccc2N)cc1", "IC50 / nM": 48}
{"structure smiles": "COc1ccc(C(=O)N[C@@H](Cc2c[nH]c3ccccc23)C(=O)Nc2ccc(C(=O)Nc3cc(-c4cccs4)ccc3N)cc2)cc1", "IC50 / nM": 36.5}
{"structure smiles": "COc1ccc(C(=O)N[C@@H](Cc2c[nH]c3ccccc23)C(=O)NCc2ccc(C(=O)Nc3ccccc3N)cc2)cc1", "IC50 / nM": 20.6}
{"structure smiles": "COc1ccc(C(=O)N[C@@H](Cc2c[nH]c3ccccc23)C(=O)NCCCCCC(=O)Nc2ccccc2N)cc1", "IC50 / nM": 58.6}
{"structure smiles": "COc1ccc(C(=O)N[C@H](CNCc2ccc(C(=O)Nc3ccccc3N)cc2)Cc2c[nH]c3ccccc23)cc1", "IC50 / nM": 29.9}

Looking up COc1ccc(C(=O)N[C@@H](Cc2c[nH]c3ccccc23)C(=O)Nc2ccc(C(=O)Nc3ccccc3N)cc2)cc1 , I see its IC50 listed as 49.6

Looking up COc1ccc(C(=O)N[C@@H](Cc2c[nH]c3ccccc23)C(=O)NCc2ccc(C(=O)Nc3cc(-c4ccccc4)ccc3N)cc2)cc1 , I see its IC50 listed as 58.4

###

- measured on: Histone deacetylase 1 (Homo sapiens, UniProt Q13547)
- method description: Inhibition of HDAC1 (unknown origin) using Boc-Lys (acetyl)-AMC as substrate incubated for 10 mins followed by substrate addition measured after 30 mins by fluorescence assay
pIC50: −log10 of the molar value.
# cutoff 7 applies to pIC50; >= gives 1, < gives 0

Use these answered entries as a reference point.
{"structure smiles": "COc1ccc(C(=O)N[C@H](COc2ccc(C(=O)Nc3ccccc3N)cc2)Cc2c[nH]c3ccccc23)cc1", "answer label": 1}
{"structure smiles": "COc1ccc(C(=O)N[C@@H](Cc2c[nH]c3ccccc23)C(=O)NCc2ccc(C(=O)Nc3cc(-c4cccs4)ccc3N)cc2)cc1", "answer label": 1}
{"structure smiles": "COc1ccc(C(=O)N[C@@H](Cc2c[nH]c3ccccc23)C(=O)NCCCCCC(=O)Nc2ccc(F)cc2N)cc1", "answer label": 0}
{"structure smiles": "COc1ccc(C(=O)N[C@H](COc2ccc(CC(=O)Nc3ccccc3N)cc2)Cc2c[nH]c3ccccc23)cc1", "answer label": 0}

### Prompt Does pIC50 meet or surpass 7 for COc1ccc(C(=O)N[C@@H](Cc2c[nH]c3ccccc23)C(=O)NCCCCCC(=O)Nc2cc(-c3ccccc3)ccc2N)cc1 ?
### Response 1

###

- measured on: Histone deacetylase 3 (Homo sapiens, UniProt O15379)
- Sequence (O15379 whole entry): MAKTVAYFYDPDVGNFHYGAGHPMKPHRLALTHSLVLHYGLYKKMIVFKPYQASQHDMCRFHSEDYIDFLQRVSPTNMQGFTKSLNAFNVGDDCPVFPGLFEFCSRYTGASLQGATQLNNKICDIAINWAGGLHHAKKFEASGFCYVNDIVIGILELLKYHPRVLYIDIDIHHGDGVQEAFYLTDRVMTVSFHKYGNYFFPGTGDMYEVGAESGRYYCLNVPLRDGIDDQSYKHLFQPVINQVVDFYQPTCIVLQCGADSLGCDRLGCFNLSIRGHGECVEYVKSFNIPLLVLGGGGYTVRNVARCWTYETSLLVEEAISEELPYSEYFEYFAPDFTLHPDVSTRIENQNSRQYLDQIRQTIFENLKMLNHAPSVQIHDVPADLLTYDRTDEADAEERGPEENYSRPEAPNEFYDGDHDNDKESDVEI
pIC50: −log10 of the molar value.
# cutoff 7 applies to pIC50; >= gives True, < gives False

Use these answered entries as a reference point.
{"structure smiles": "COc1ccc(C(=O)N[C@@H](Cc2c[nH]c3ccccc23)C(=O)NCCCCCC(=O)Nc2cc(-c3ccccc3)ccc2N)cc1", "answer label": "False"}
{"structure smiles": "COc1ccc(C(=O)N[C@@H](Cc2c[nH]c3ccccc23)C(=O)NCCCCCC(=O)Nc2ccccc2N)cc1", "answer label": "True"}
{"structure smiles": "COc1ccc(C(=O)N[C@@H](Cc2c[nH]c3ccccc23)C(=O)NCc2ccc(C(=O)Nc3cc(-c4cccs4)ccc3N)cc2)cc1", "answer label": "False"}

### Prompt Does pIC50 meet or surpass 7 for COc1ccc(C(=O)N[C@@H](Cc2c[nH]c3ccccc23)C(=O)NCCCCCC(=O)Nc2cc(-c3cccs3)ccc2N)cc1 ?
### Response False
